- ASSAY: protein stability index of a GFP-peptide fusion (yeast GPS) (PSI 1-4); higher = more stable; sorted into four equal gates, so the index is relative within each strain
- TEST_PARAMETERS: doa10∆
Reported protein stability index values for the following sequences.

[
  {
    "SEQUENCE_CHAIN": "VAASIIPFPDHNQSPRN [RPB2]",
    "protein stability index": 2.37
  },
  {
    "SEQUENCE_CHAIN": "ETRNGKVKNQGADVTNT [YCS4]",
    "protein stability index": 3.22
  },
  {
    "SEQUENCE_CHAIN": "IQPTAKVVYIQRRSWRQ [DIS3]",
    "protein stability index": 1.52
  },
  {
    "SEQUENCE_CHAIN": "AVYETLISRMIFIATQL [BRR2]",
    "protein stability index": 1.96
  },
  {
    "SEQUENCE_CHAIN": "SATVKTSDLLGSHLSET [ECM29]",
    "protein stability index": 2.67
  },
  {
    "SEQUENCE_CHAIN": "NEQAARAANQGALPPDL [CYT1]",
    "protein stability index": 3.18
  },
  {
    "SEQUENCE_CHAIN": "HPIRVLMASVILDSLPS [YDL116W/NUP84]",
    "protein stability index": 1.7
  }
]

---

Reported protein stability index values for the following sequences.
- ASSAY: protein stability index of a GFP-peptide fusion (yeast GPS) (PSI 1-4); higher = more stable; sorted into four equal gates, so the index is relative within each strain
- TEST_PARAMETERS: pdr5∆
READOUT: protein stability index

[
  {
    "SEQUENCE_CHAIN": "SYVETLDSMIELFKDYK [MED1]",
    "RECORDED_VALUE": 3.22
  },
  {
    "SEQUENCE_CHAIN": "NGASVPINLHPSKLVIT [RPL26A]",
    "RECORDED_VALUE": 1.83
  },
  {
    "SEQUENCE_CHAIN": "EMARTKKACIIFFDEID [RPT1]",
    "RECORDED_VALUE": 2.5
  },
  {
    "SEQUENCE_CHAIN": "KTTRLLLIIRSLKNTDA [YJL039C/NUP192]",
    "RECORDED_VALUE": 1.31
  },
  {
    "SEQUENCE_CHAIN": "PNFEASFVHGVVGQLFQ [SMC2]",
    "RECORDED_VALUE": 2.56
  },
  {
    "SEQUENCE_CHAIN": "IRSSRSRGIVIGSGAMS [RPP1]",
    "RECORDED_VALUE": 2.77
  },
  {
    "SEQUENCE_CHAIN": "VRTRGGNKKYRALRIET [RPS8A]",
    "RECORDED_VALUE": 2.52
  },
  {
    "SEQUENCE_CHAIN": "MQRHVKVDGKVRTDTTY [RPS4A]",
    "RECORDED_VALUE": 3.28
  },
  {
    "SEQUENCE_CHAIN": "AAAAPAPVAAAAPAAAA [FAS2]",
    "RECORDED_VALUE": 1.62
  },
  {
    "SEQUENCE_CHAIN": "SLEGCVEMAWIMGFISY [FAS2]",
    "RECORDED_VALUE": 1.86
  },
  {
    "SEQUENCE_CHAIN": "RRFYKNWYKSKKKAFTK [RPL3]",
    "RECORDED_VALUE": 2.8
  },
  {
    "SEQUENCE_CHAIN": "KIIEDLRQKHEFLEDFD [SMC2]",
    "RECORDED_VALUE": 2.54
  },
  {
    "SEQUENCE_CHAIN": "AMVEKYAPDVVRSLENL [RRP42]",
    "RECORDED_VALUE": 2.81
  },
  {
    "SEQUENCE_CHAIN": "SVNFFVSLLKKNWQNVG [RPL1A]",
    "RECORDED_VALUE": 1.32
  }
]

---

- ASSAY: protein stability index of a GFP-peptide fusion (yeast GPS) (PSI 1-4); higher = more stable; sorted into four equal gates, so the index is relative within each strain
- TEST_PARAMETERS: ubr1∆
Classes by protein stability index: I (below 2), II (2 to below 3), III (3 or more)

[
  {
    "SEQUENCE_CHAIN": "LPTRYTLDVEAFKSVVS [RPL27A]",
    "GROUP": "I"
  },
  {
    "SEQUENCE_CHAIN": "IFLSKENSAVAAKEGLA [COR1]",
    "GROUP": "I"
  },
  {
    "SEQUENCE_CHAIN": "YEMVIREKNALKRLAWQ [ISW2]",
    "GROUP": "II"
  },
  {
    "SEQUENCE_CHAIN": "ADIENSTSGDPSEFHCL [SSN2]",
    "GROUP": "III"
  },
  {
    "SEQUENCE_CHAIN": "ILDAICFVLGIASMSTV [SMC2]",
    "GROUP": "I"
  },
  {
    "SEQUENCE_CHAIN": "ESFAELMTKLNSFKLFK [RPC17]",
    "GROUP": "II"
  },
  {
    "SEQUENCE_CHAIN": "TTIDSLNAELESKLIPQ [SMC3]",
    "GROUP": "III"
  },
  {
    "SEQUENCE_CHAIN": "KDIEKLTNEISDLKGKL [YIL149C/MLP2]",
    "GROUP": "III"
  },
  {
    "SEQUENCE_CHAIN": "YREAPVIYRGPEPSHID [RET1]",
    "GROUP": "III"
  },
  {
    "SEQUENCE_CHAIN": "KPIYKDTRFGGRMDMTR [SSN2]",
    "GROUP": "III"
  },
  {
    "SEQUENCE_CHAIN": "SLTDVAFFTYDAGVTFN [ECM29]",
    "GROUP": "II"
  }
]

---

- ASSAY: protein stability index of a GFP-peptide fusion (yeast GPS) (PSI 1-4); higher = more stable; sorted into four equal gates, so the index is relative within each strain
- TEST_PARAMETERS: doa10∆
Reported protein stability index values for the following sequences.

[
  {
    "SEQUENCE_CHAIN": "LPTRYTLDVEAFKSVVS [RPL27A]",
    "protein stability index": 1.33
  },
  {
    "SEQUENCE_CHAIN": "MCGVIVKQYNKKWPQFY [SIN4]",
    "protein stability index": 1.65
  },
  {
    "SEQUENCE_CHAIN": "AIQKKDNKDKEGNAGGD [YOR098C/NUP1]",
    "protein stability index": 3.44
  },
  {
    "SEQUENCE_CHAIN": "DESLIRELYKYVRKHDP [PRP28]",
    "protein stability index": 3.4
  },
  {
    "SEQUENCE_CHAIN": "SFTQGELNDLKWGRNQP [YMR129W/POM152]",
    "protein stability index": 3.04
  },
  {
    "SEQUENCE_CHAIN": "SFVGDYMHDTELNYFVG [GRR1]",
    "protein stability index": 3.1
  },
  {
    "SEQUENCE_CHAIN": "SQLKKTKAQQKTAEQIA [RPL7B]",
    "protein stability index": 2.9
  },
  {
    "SEQUENCE_CHAIN": "PKELGGLGMISASHILI [PRP8]",
    "protein stability index": 2.36
  },
  {
    "SEQUENCE_CHAIN": "RKVSGPRALQPSQFGML [RET1]",
    "protein stability index": 2.36
  },
  {
    "SEQUENCE_CHAIN": "TENAIEEKVIERAAQKL [ISW2]",
    "protein stability index": 2.61
  },
  {
    "SEQUENCE_CHAIN": "GLGVLTHRNKDGTGVRV [FAS1]",
    "protein stability index": 3.12
  },
  {
    "SEQUENCE_CHAIN": "ENNTDSARKELEQKIHE [SMC1]",
    "protein stability index": 2.33
  },
  {
    "SEQUENCE_CHAIN": "VASLSKRNKLLTIFDSV [YJL039C/NUP192]",
    "protein stability index": 1.98
  },
  {
    "SEQUENCE_CHAIN": "QTFGVDILAKLFSLEKP [SWI1]",
    "protein stability index": 2.81
  }
]
